Assay: Histimine (% vs. 48/40)
Where a SMILES comes first, the peptide text is derived from it. [ ]: non-standard residue; d: D form. The star is where a group is joined. Palmitoyl = CCCCCCCCCCCCCCCC(=O)*
Readout name: Histimine (% vs. 48/40) (%)
Give the value, in units of %, as a plain number.

Item: CCCCCCCCCCCCCCCC(=O)N[C@H](C(=O)N[C@H](C(=O)NCC(=O)N[C@@H](CCCNC(=N)N)C(=O)N[C@@H](CO)C(=O)N[C@@H](CO)C(=O)N[C@@H](CCC(=O)O)C(=O)N[C@H](CCCCN)C(=O)N[C@@H](CCCNC(=N)N)C(=O)N[C@@H](CCCNC(=N)N)C(=O)N[C@@H](CO)C(=O)N[C@@H](C)C(=O)N[C@@H](CC(=O)O)C(=O)N[C@H](C(=O)N[C@@H](Cc1ccccc1)C(=O)N[C@H](C(N)=O)[C@@H](C)CC)[C@@H](C)CC)C(C)C)[C@@H](C)O [Compound 70] (Palmitoyl-TVGRSSE[dK]RRSADIFI-NH2) | Histimine (% vs. 48/40): 29

get_value(item= CCCCCCCCCCCCCCCC(=O)N[C@H](C(=O)N[C@H](C(=O)N[C@@H](Cc1ccccc1)C(=O)N[C@@H](CCCNC(=N)N)C(=O)N[C@@H](CO)C(=O)N[C@@H](CO)C(=O)N[C@@H](CCC(=O)O)C(=O)N[C@H](CCCCN)C(=O)N[C@@H](CCCNC(=N)N)C(=O)N[C@@H](CCCNC(=N)N)C(=O)N[C@@H](CO)C(=O)N[C@@H](C)C(=O)N[C@@H](CC(=O)O)C(=O)N1CCC[C@H]1C(=O)N[C@@H](Cc1ccccc1)C(=O)N[C@H](C(N)=O)[C@@H](C)CC)C(C)C)[C@@H](C)O [Compound 54] (Palmitoyl-TVFRSSE[dK]RRSADPFI-NH2) , readout=Histimine (% vs. 48/40)) returns 60

Record CCCCCCCCCCCCCCCC(=O)N[C@H](C(=O)N[C@H](C(=O)N[C@@H](Cc1ccccc1)C(=O)N[C@@H](CCCNC(=N)N)C(=O)N[C@@H](CO)C(=O)N[C@@H](CO)C(=O)N[C@@H](CCC(=O)O)C(=O)N[C@H](CCCCN)C(=O)N[C@@H](CCCNC(=N)N)C(=O)N[C@@H](CCCNC(=N)N)C(=O)N[C@@H](CO)C(=O)N[C@@H](C)C(=O)N1CCC[C@H]1C(=O)N[C@H](C(=O)N[C@@H](Cc1ccccc1)C(=O)N[C@H](C(N)=O)[C@@H](C)CC)[C@@H](C)CC)C(C)C)[C@@H](C)O [Compound 53] (Palmitoyl-TVFRSSE[dK]RRSAPIFI-NH2) . Reported Histimine (% vs. 48/40): 115

The reported Histimine (% vs. 48/40) of the molecule CCCCCCCCCCCCCCCC(=O)N[C@H](C(=O)N[C@H](C(=O)N[C@@H](Cc1ccccc1)C(=O)N[C@@H](CCCNC(=N)N)C(=O)N[C@@H](CO)C(=O)N[C@@H](CO)C(=O)N[C@@H](CCC(=O)O)C(=O)N[C@H](CCCCN)C(=O)N[C@@H](CCCNC(=N)N)C(=O)N[C@@H](CCCNC(=N)N)C(=O)N[C@@H](CO)C(=O)N[C@@H](C)C(=O)N[C@@H](CC(=O)O)C(=O)N[C@H](C(=O)N[C@@H](Cc1ccccc1)C(=O)N[C@@H](CC(=O)O)C(N)=O)[C@@H](C)CC)C(C)C)[C@@H](C)O [Compound 41] (Palmitoyl-TVFRSSE[dK]RRSADIFD-NH2) was 48
